- System: NCI-H2122
- protocol-text: Cytotoxicity against human NCI-H2122 cells assessed as cell growth inhibition measured after 96 hrs by CellTiter-Glo assay
- Assay type: functional, cell-based
- run-parameters: NCI-H2122, 96 h
reported-property: IC50

COc1cc2nc(C(=O)NCC(=O)O)sc2c(C/C=C(\C)CC/C=C(\C)CC/C=C(\C)CCC/C(C)=C\CC(=O)O)c1O | 2500 nM

---

- protocol-text: Cytotoxicity against human ACC-MESO-1 cells assessed as cell growth inhibition by MTT assay
- Type: functional, cell-based
pIC50: −log10 of the molar value.
reported-property: pIC50

CC(/C=C/C1CC1)=C\[C@@H]1[C@@H](OC(=O)CC(C)C)[C@](C)(O)[C@@H]2[C@H]3O[C@H]3CCN12 | 4.41

---

- experimental-system: Acetylcholinesterase (Homo sapiens)
- Sequence (P22303 whole entry): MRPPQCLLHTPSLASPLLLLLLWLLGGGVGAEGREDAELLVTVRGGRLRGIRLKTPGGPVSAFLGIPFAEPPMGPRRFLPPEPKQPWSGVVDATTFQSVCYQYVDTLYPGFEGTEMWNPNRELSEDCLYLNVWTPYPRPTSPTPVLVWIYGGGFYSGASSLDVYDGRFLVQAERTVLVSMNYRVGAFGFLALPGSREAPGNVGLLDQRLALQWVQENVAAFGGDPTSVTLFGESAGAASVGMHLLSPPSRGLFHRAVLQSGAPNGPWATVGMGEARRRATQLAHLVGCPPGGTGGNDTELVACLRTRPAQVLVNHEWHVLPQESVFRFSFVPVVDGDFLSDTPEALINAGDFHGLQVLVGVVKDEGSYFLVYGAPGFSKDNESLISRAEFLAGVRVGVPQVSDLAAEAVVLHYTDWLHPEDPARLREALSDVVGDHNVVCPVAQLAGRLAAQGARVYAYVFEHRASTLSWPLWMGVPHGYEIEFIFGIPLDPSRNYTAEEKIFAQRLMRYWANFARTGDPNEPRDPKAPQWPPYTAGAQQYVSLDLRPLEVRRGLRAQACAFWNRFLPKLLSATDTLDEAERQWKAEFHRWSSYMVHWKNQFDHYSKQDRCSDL
reported-property: IC50 (µM)

C[C@H]1CN2C(=O)[C@]34Cc5c([nH]c6c7c(ccc56)OC(C)(C)CC7=O)C(C)(C)[C@@H]3C[C@@]2(C1)C(=O)N4 | 58
